Below, each entry is listed alongside its reported Tm.
experiment: melting temperature; fluorescence melt of hairpins on a sequencing array, two-state fit, raised by 9.35 °C to match UV melts; conditions: sodium 0.088 M

| biosequence | Tm, °C |
| --- | --- |
| GAGTGCGGAAACGTGCTC (((..((....))..))) | 49.5 |
| GCGATACTCGC ((((...)))) | 49.3 |
| GCGGTTGTCCGC ((((....)))) | 58.6 |
| GACAGAGGAAACCCTGTC (((((.(....).))))) | 42.5 |
| GTATGTGGAAACATATGC (.((.((....)).)).) | 37.5 |
| GATCCGCACCGGATC ((((((...)))))) | 57.1 |
| GTTGGAGGAAACCCCAAC (((((.(....).))))) | 44.5 |
| GTGATCGAAAGATTGCAC ((((((....)))..))) | 30.4 |
| GAGTTCCGAAAGGATCTC (((.(((....))).))) | 47.3 |
| GATCTTCGGGAAGATC ((((((....)))))) | 49.5 |
| GGGCAGCGAAAGCTCCC (((.(((....)))))) | 57.3 |
| GTACACGGAAACGTGCAC ((.((((....)))).)) | 46.8 |
| GTCGTCGAAAGACAGGAC ((((((....)))..))) | 41 |
| GGGTAGAAATACCC (((((....))))) | 47.9 |
| GCTACAACGAAAGTTAGC (((..(((....)))))) | 33.4 |
| GCACCGCGAAAGCCCTGC (((..((....))..))) | 28.2 |
| GCAAGTCGAAAGACGTGC (((.(((....))).))) | 55.8 |
| GAGTTGGGAAACCGACTC ((((.((....)).)))) | 51.5 |
| GTCCCCGAAAGGGTGGAC ((((((....)))..))) | 48.9 |
| GATCGATCAATCGATC ((((((....)))))) | 53.8 |
| GTTCCCGAAAGGGTGAAC ((((((....)))..))) | 35.5 |
| GATCACCGAAAGGTTATC (((.(((....))).))) | 40.4 |
| GCTAAACGAAAGTTCAGC (((.(((....))).))) | 41.4 |
| GGGATGTCGAAAGACCCC (((..(((....)))))) | 44.9 |
| GCGATCGAAAGATTTCGC ((((((....)))..))) | 39.8 |
| GCGACATATCGC ((((....)))) | 49.9 |
| GGATGTGGAAACACGTTC (.(.(((....))).).) | 35.8 |
| GCAGCGCGAAAGCGGCGC ((..(((....)))..)) | 67.5 |
| GATCCTGGCGAGGATC ((((((....)))))) | 54.6 |
| GGGGCTCCGAAAGGACCC (((..(((....)))))) | 56.9 |
| GCAATACGAAAGTAGTGC (((.(((....))).))) | 54.7 |
| GAGAATGAAAATTCTC ((((((....)))))) | 46 |
| GCTGGCGAAAGCCGCAGC ((((((....)))..))) | 52.4 |
| GGAGTTCGAAAGAATTCC (((.(((....))).))) | 48.6 |
| GCGCTCCGAAAGGATCGC (((.(((....))).))) | 59.2 |
| GTCACCCGAAAGGGGAC (((.(((....)))))) | 55 |
| GTTGTTCGAAAGAAGAAC (((.(((....))).))) | 43.3 |

Values from the array DNA melting data of Ke et al. (doi:10.1101/2024.01.08.574731)
